Tested on: MT-2 lymphocytes
Parameter CC50: see the listing below.

compound: C=C[C@@]1(C)COC(=O)[C@]12OC(c1ccccc1)=CC2=O
inequality_sign: =
CC50 (µM): 925

compound: Cc1cn([C@H]2C[C@H](N=[N+]=[N-])[C@@H](CO)O2)c(=O)[nH]c1=O [AZT, reference compound]
inequality_sign: >
CC50 (µM): 50

---

Experiment: Cytotoxicity against non-infected MT-2 lymphocytes
Settings: human
reported_property: CC50 (µM)

smiles_repr: C=C[C@@]1(C)COC(=O)[C@]12O[C@]1(c3ccccc3)[C@H](C2=O)[C@H]2[C@H]([C@H](C)CCC=C(C)C)CC=C(C)[C@H]21
reported_property: CC50
units_label: µM
measured: 198
